- Tested on: 3T3-L1 pre-adipocytes
- Assay Details: Thymidine incorporation assay (mitotic clonal expansion)
- Type: cell-based
- Stated Conditions: Mus musculus; 3T3-L1 cells undergoing mitotic clonal expansion; read-out: thymidine incorporation inhibition IC50
pIC50: −log10 of the molar value.
A collection of compounds and their measured pIC50

{"Compound": "COC(=O)/C=C/c1ccc(O)c(O)c1 [CAME, CA methyl ester]", "pIC50": 4.40}
{"Compound": "CCOC(=O)/C=C/c1ccc(O)c(O)c1 [CAEE, caffeic acid ethyl ester]", "pIC50": 4.88}
